Would you kindly list Post-emerge Herbicidal Activity RICE (crop damage) for each of these compounds?
- Test system: upland rice (Oryza sp., var. Tebonnet, RICE)
- ASSAY DETAILS: Post-emerge test, crop safety
- Type: in vivo
- CONDITIONS: 250 g ai/ha; phytotoxicity rating 0-100 (0 no damage, 100 complete death), 14 days after application
- Experimental: A standard greenhouse herbicide activity screening system was used to evaluate the herbicidal efficacy and crop safety of these test compounds. […] At 14 days after application of the test materials, phytotoxicity ratings were recorded. […]
Enter the number alone.

### Prompt Give recorded Post-emerge Herbicidal Activity RICE (crop damage). "CC(C)Oc1c(Cl)cc(F)c(-n2c(=O)cc(C(F)(F)F)n(C)c2=O)c1N"
### Response 40

### Prompt Give recorded Post-emerge Herbicidal Activity RICE (crop damage). "C=C(C)C(=O)Nc1c(OC)c(Cl)cc(F)c1-n1c(=O)cc(C(F)(F)F)n(C)c1=O"
### Response 40

### Prompt Give recorded Post-emerge Herbicidal Activity RICE (crop damage). "COc1c(Cl)cc(F)c(-n2c(=O)cc(C(F)(F)F)n(C)c2=O)c1NS(=O)(=O)c1ccc(C)cc1"
### Response 0

### Prompt Give recorded Post-emerge Herbicidal Activity RICE (crop damage). "COc1c(Cl)cc(F)c(-n2c(=O)cc(C(F)(F)F)n(C)c2=O)c1NC(=O)c1ccc(C)c(C)c1"
### Response 80

### Prompt Give recorded Post-emerge Herbicidal Activity RICE (crop damage). "COC(=O)C(=O)Nc1c(OC)c(Cl)cc(F)c1-n1c(=O)cc(C(F)(F)F)n(C)c1=O"
### Response 0

### Prompt Give recorded Post-emerge Herbicidal Activity RICE (crop damage). "CCOC(=O)COc1c(Cl)cc(F)c(-n2c(=O)cc(C(F)(F)F)n(C)c2=O)c1N"
### Response 60

### Prompt Give recorded Post-emerge Herbicidal Activity RICE (crop damage). "CCCc1ccc(C(=O)N(C(=O)c2ccc(CCC)cc2)c2c(OC)c(Cl)cc(F)c2-n2c(=O)cc(C(F)(F)F)n(C)c2=O)cc1"
### Response 60

### Prompt Give recorded Post-emerge Herbicidal Activity RICE (crop damage). "C=C(C)C(=O)N(C(=O)C(=C)C)c1c(OC)c(Cl)cc(F)c1-n1c(=O)cc(C(F)(F)F)n(C)c1=O"
### Response 0

### Prompt Give recorded Post-emerge Herbicidal Activity RICE (crop damage). "COc1c(Cl)cc(F)c(-n2c(=O)cc(C(F)(F)F)n(C)c2=O)c1NC(=O)C=C(C)C"
### Response 40

### Prompt Give recorded Post-emerge Herbicidal Activity RICE (crop damage). CCOC(=O)C(C)Oc1c(Cl)cc(F)c(-n2c(=O)cc(C(F)(F)F)n(C)c2=O)c1N (stereo not shown)
### Response 40

### Prompt Give recorded Post-emerge Herbicidal Activity RICE (crop damage). "COc1c(Cl)cc(F)c(-n2c(=O)cc(C(F)(F)F)n(N)c2=O)c1N"
### Response 80

### Prompt Give recorded Post-emerge Herbicidal Activity RICE (crop damage). "Cn1c(C(F)(F)F)cc(=O)n(-c2c(F)cc(Cl)c(OCC#N)c2N)c1=O"
### Response 0

### Prompt Give recorded Post-emerge Herbicidal Activity RICE (crop damage). CCOC(=O)C(C)Nc1cc(Cl)cc(F)c1-n1c(=O)cc(C(F)(F)F)n(C)c1=O (stereo not shown)
### Response 45

### Prompt Give recorded Post-emerge Herbicidal Activity RICE (crop damage). "CCc1ccc(C(=O)Nc2c(OC)c(Cl)cc(F)c2-n2c(=O)cc(C(F)(F)F)n(C)c2=O)cc1"
### Response 95

### Prompt Give recorded Post-emerge Herbicidal Activity RICE (crop damage). CCOC(=O)C(C)Nc1c(OC)c(Cl)cc(F)c1-n1c(=O)cc(C(F)(F)F)n(C)c1=O (stereo not shown)
### Response 0

### Prompt Give recorded Post-emerge Herbicidal Activity RICE (crop damage). "COc1c(Cl)cc(F)c(-n2c(=O)c(NC(=O)C(F)(F)F)c(C(F)(F)F)n(C)c2=O)c1NC(=O)C(F)(F)F"
### Response 0
